Target: UniProtKB Q96GD4
Sequence (Q96GD4 whole entry): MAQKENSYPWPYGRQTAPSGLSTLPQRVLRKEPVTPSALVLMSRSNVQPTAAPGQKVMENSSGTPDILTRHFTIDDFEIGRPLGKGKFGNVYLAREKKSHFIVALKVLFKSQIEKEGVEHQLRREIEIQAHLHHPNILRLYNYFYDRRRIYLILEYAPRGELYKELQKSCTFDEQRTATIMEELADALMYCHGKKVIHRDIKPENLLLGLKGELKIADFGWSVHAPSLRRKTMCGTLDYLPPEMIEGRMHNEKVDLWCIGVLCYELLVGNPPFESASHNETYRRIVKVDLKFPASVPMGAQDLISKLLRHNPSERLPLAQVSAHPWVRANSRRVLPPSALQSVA
Experiment: Inhibition of recombinant full length human N-terminal GST-tagged Aurora B expressed in baculovirus infected Sf9 cells at 1 uM using myelin basic protein as substrate after 60 mins by ADP-Glo luminescence assay relative to control
Provide the reported inhibition of each item.
Answers are plain numbers, in %.

Some entries whose results are on file:
structure_string=O=C(Nc1ccc(Cl)cc1)Nc1ccc(CNc2nc3ccc(OCCN4CCCCC4)cc3s2)cc1 measure=inhibition obs_value=5
structure_string=O=C(Nc1ccc(CNc2nc3ccc(OCCN4CCOCC4)cc3s2)cc1)Nc1ccc(Cl)c(Cl)c1 measure=inhibition obs_value=77
structure_string=CN(C)CCOc1ccc2nc(NCc3ccc(NC(=O)Nc4ccc(Cl)cc4)cc3)sc2c1 measure=inhibition obs_value=65
structure_string=O=C(Nc1ccc(Cl)cc1)Nc1ccc(CNc2nc3ccc(OCCN4CCOCC4)cc3s2)cc1 measure=inhibition obs_value=100
structure_string=O=C(Nc1ccc(Cl)cc1)Nc1cccc(CNc2nc3ccc(OCCN4CCOCC4)cc3s2)c1 measure=inhibition obs_value=31

Provide reported inhibition for each item, in the same order as listed.
1. O=C(Nc1ccc(Br)cc1)Nc1ccc(CNc2nc3ccc(OCCN4CCOCC4)cc3s2)cc1
2. O=C(Nc1cccc(Cl)c1)Nc1cccc(CNc2nc3ccc(OCCN4CCOCC4)cc3s2)c1
3. COc1ccc(NC(=S)Nc2ccc(CNc3nc4ccc(OCCN5CCOCC5)cc4s3)cc2)cc1
4. COc1ccc(NC(=O)Nc2ccc(CNc3nc4ccc(OCCN5CCOCC5)cc4s3)cc2)cc1

Ans:
1: 83; 2: 33; 3: 72; 4: 79
